Where these numbers come from: the RNAGym collection of RNA variant scans (doi:10.7554/elife.80360)

B1: HDV Ribozyme (parent)
chain: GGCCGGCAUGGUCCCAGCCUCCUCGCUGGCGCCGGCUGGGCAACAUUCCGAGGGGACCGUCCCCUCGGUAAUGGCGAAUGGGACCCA

Variants of: B1
Assay: self-cleavage, relative activity (ratio to wild type); higher = more cleavage; co-transcriptional
Result Type: self-cleavage
Answer with the value's number alone.

In [3]: df
Out[3]:
                              item_sequence  recorded_result
0  GGCCGGCAUGGUCCCAGCCUCCUCGCCGGCGCCGGCUGGGCAACAUUCCGAGGGGACCGUCCCCUCGGUAGUGGCGAAUGGGACCCA [U27C A71G]            0.677
1  GGCCGGCAUGGUCCCAGCCUCCUCGCUGGCGCCGGCUGGGCAACAUUCCGAGGGGACCGUCCCCUCGGUAUUGGCGAAAGGGACCCA [A71U U79A]            0.782
2  GGCCGGCAUGGUCCCAGCCUCCUCGAUGGCGCCGGCUGGGCAACAUUCCGAGGGGACCGCCCCCUCGGUAAUGGCGAAUGGGACCCA [C26A U60C]             0.81
3  GGCCGGCAUGGUCCCAGCCUGCUCGCUGACGCCGGCUGGGCAACAUUCCGAGGGGACCGUCCCCUCGGUAAUGGCGAAUGGGACCCA [C21G G29A]                0
4  GGCCGGCAUGGUCCCAGCCUACUCGCUGGCGCCGGCUGGGCAACAUUCCGAGGGGACCGUCGCCUCGGUAAUGGCGAAUGGGACCCA [C21A C62G]            0.138

Task: Any idea what its self-cleavage is? The variant is GGCCGGCCUGGUCCCAGCCUCCUCGCUGGCGCCGGCUGGGCAACAUUCCGAGGGGACCGUCCCCUCGGUAAUGGCGAAUGGGACCUA [A8C C86U]
Result: 0.862

Task: What do you have for GGCCGGCAUGGUCCCAGCCUCCUCGCUGGCGGCGGCUGGGCAACAUUCCGAGGGGACCGUCCCCUCGGUAAUGGCGACUGGGACCCA [C32G A78C] ?
Result: 0.0665

Task: What do you have for GGCCGGCAUGGUCCCAGCCUCCUCGCAGGCGCCGGCUGGGCAACAUUCCGAGGGGAGCGUCCCCUCGGUAAUGGCGAAUGGGACCCA [U27A C57G] ?
Result: 0.8

Task: What do you have for GGCCGGCAUGGUCCCAGCCUCCUCGCUGGCGCCGGCUGGUCCACAUUCCGAGGGGACCGUCCCCUCGGUAAUGGCGAAUGGGACCCA [G40U A42C] ?
Result: 0.671

Task: What do you have for GGCCGGCAUGGUCCCAGCCUCCUCGCUGGCGCCGGCUGGGCAACAUUCCGAGGGGACCGUCCCCUCUGUAAUGGCGAAUCGGACCCA [G67U G80C] ?
Result: 0.128

Task: What do you have for GGCCGGCAUGGUCCGAGCCUCCUCGCUGGCGCCGGCUGGGUAACAUUCCGAGGGGACCGUCCCCUCGGUAAUGGCGAAUGGGACCCA [C15G C41U] ?
Result: 0.277

Task: What do you have for GGCCGGCAUGGUCCCAGCCUCCUCGCUGGCGCCGGCUGGGCAACAUUCCGAGGGGACCGUGCCCUCGGUAAUGGCGAAUAGGACCCA [C61G G80A] ?
Result: 0.434

Task: What do you have for GGCCGGCAUGCUCCCAGCCUCCUCGCUGGCGCCGGCUGGGCAACAUUCCGAGGGGACCGUCCCCUCGGUAAUGGCGAAUGGUACCCA [G11C G82U] ?
Result: 0.104

Task: What do you have for GGCCGGCAUGGUCCCAGCCUCCUCGCUGGCGCCGGCUGGGCGACAUUCCGAGGAGACCGUCCCCUCGGUAAUGGCGAAUGGGACCCA [A42G G54A] ?
Result: 0.567

Task: What do you have for GGCCGGCAGGGUCCCAGCCUCCUCGCUGGCGCCGGCAGGGCAACAUUCCGAGGGGACCGUCCCCUCGGUAAUGGCGAAUGGGACCCA [U9G U37A] ?
Result: 0

Task: What do you have for GGCCGGCAUGGUCCCAGCCUCCUCGCUGGCGCCGGCUGGGCAACAUUCCGAGGGGACCGUCCCCACGGUAAGGGCGAAUGGGACCCA [U65A U72G] ?
Result: 0.399

Task: What do you have for GGCUGGCAUGGUCCCAGCCUCCUCGCUGGCGCCGGCUGGGCAACAUUCCGAGGGGACCGUCCGCUCGGUAAUGGCGAAUGGGACCCA [C4U C63G] ?
Result: 0.396

Task: What do you have for GGCCGGCAUGGUCCCAGCCUCCUCGCUGGCCCCGGCUGGGCAACAUUCCGAGGGGACCGUCCCCUCGGUAAUGGUGAAUGGGACCCA [G31C C75U] ?
Result: 0.111
